Known T/C of a selection of compounds
# Tested on: BDF1 mice, B16 melanoma ip, median survival T/C
# protocol-text: NCI In Vivo Anticancer Drug Screen. Data for tumor model B16 Melanoma (intraperitoneal) in B6D2F1 (BDF1) mice
# experimental-setup: endpoint: median survival time; dose: 6.25 mg/kg/injection; schedule: Q01DX009 (ip); vehicle: saline; higher = longer survival
Toxic doses and inconclusive results are not listed.
property: T/C

compound	observed-measurement
COC(=O)C1C2CC3c4[nH]c5cc(OC)ccc5c4CCN3CC2CC(OC)C1OC (centres undefined)	103 % of control
C=CCOCC(O)CNCCCOC (centres undefined)	102 % of control
CNC(C)CC1CCCCC1 (centres undefined)	100 % of control
CCN(CC)CCC1CCNCC1	112 % of control
COc1cc2cc[n+]3c(C)c4cc5c(cc4cc3c2cc1OC)OCO5 (tested in a mixture with another compound)	94 % of control
CCCCNCC1COc2cccc(OCC)c2O1 (centres undefined)	95 % of control
CCN(CC)CCOC(=O)c1ccc(N)cc1	100 % of control
CCOC(=O)C(NC(=O)C(Cc1ccc(N(CCCl)CCCl)cc1)NC(C)=O)C(C)C (centres undefined)	102 % of control
CCNC(Cc1ccccc1)C1CCCO1 (centres undefined)	122 % of control
F	105 % of control
O=C(CCCN1CCC(O)(c2ccc(Cl)cc2)CC1)c1ccc(F)cc1	114 % of control
FC(F)(F)c1ccc2c(c1)N(CCCN1CCN(CCC3OCCCO3)CC1)c1ccccc1S2	115 % of control
CCCCCC(CN(C)C)C(=O)/C=C\c1ccc(Cl)cc1Cl (centres undefined)	105 % of control
O=S(=O)(O)c1ccc(-c2c3nc(c(-c4ccc(S(=O)(=O)O)cc4)c4ccc([nH]4)c(-c4ccc(S(=O)(=O)O)cc4)c4nc(c(-c5ccc(S(=O)(=O)O)cc5)c5ccc2[nH]5)C=C4)C=C3)cc1	104 % of control

Where these numbers come from: PubChem BioAssay AID192
